- System: SK-MEL-5 melanoma
- Test description: NCI-60 one-dose screen, 48 h
- Measurement context: 10 µM unless noted
About 83,000 compounds went through this panel and 20% of them were active in at least one assay; those are over-represented in the sample as a whole. Active and inactive are the calls of the source. How the source made its calls: active means growth percent below 10; inactive means the rest.
Possible outcomes: true for active, false for inactive

>>> label_class("CN1C(=O)/C(=C\\c2nc([P+](c3ccccc3)(c3ccccc3)c3ccccc3)c(N3CCOCC3)o2)SC1=S")
"false"
>>> label_class("CC1=NC2=Nn3c(c4cnn(-c5ccccc5)c4n/c3=N\\N)NN2C(c2ccccc2)=C1")
"false"
>>> label_class("O=C(O)CCN1C(=O)/C(=C/C(Cl)=C/c2ccccc2)SC1=S")
"false"
>>> label_class("CC(C)c1ccc(C(=O)Nc2sc3c(c2C(N)=O)CCC(=O)C3)cc1")
"true"
>>> label_class("CN(C)c1ccc(C(=O)OCCCCCCl)cc1")
"false"

Data credit: PubChem BioAssay (NCI)
